Tested on: HeLa human cervix carcinoma cells
Assay: Antiproliferative MTT assay, HeLa
Assay type: cell-based
Conditions: selectivity index: IC50 in non-tumour cells / IC50 in cancer cells
In this section we review reported SI MRC-5/HeLa values for a set of molecules.
// keep it numeric: no unit symbol after the value

// known answers, use as guide
C=Cc1cc(C)cc2c1-c1ccc(O)c(C)c1CC2 [Compound 14] :: 1.05
Cc1cc(O)c2c(c1C(O)COc1cc(-c3cc(=O)c4c(O)cc(O)cc4o3)ccc1O)CCc1c-2ccc(O)c1C (centres unmarked) [Compound 1, Ensifolin A] :: 2.34
C=Cc1c(C)cc(O)c2c1CCc1c-2ccc(O)c1C [Compound 5] :: 1.61
C=Cc1cc(C)cc2c1-c1ccc(O)c(COC(O)c3ccc(O)cc3)c1CC2 (centres unmarked) [Compound 2, Ensifolin B] :: 1.55
C=Cc1c(C)cc(O)c2c1CCc1c-2cc(-c2c(O)c(C)c(C=C)c3ccc4c(C)c(O)ccc4c23)c(O)c1C [Compound 11, Ensifolin K] :: 1.12

API: the following record is the query input.
Give SI MRC-5/HeLa for C#Cc1c(C)c(O)cc2c1CCc1c-2ccc(O)c1C [Compound 16, juncatrin B]
3.91
